Test system: CAL-33 (Oral Cavity Carcinoma)
Test: combination Emax (second highest fraction inhibited in the dose matrix, 72 h); higher = more inhibition; extreme values may be limits of the assay
Reported values of combination Emax for individual entries

- Molecule: "Cn1cnc2c(F)c(Nc3ccc(Br)cc3Cl)c(C(=O)NOCCO)cc21 [Selumetinib] + CC(C)n1c(=O)n(C)c2cnc3cc(F)c(-c4ccc(OCCCN5CCCCC5)nc4)cc3c21 [AZD1390] (first compound max 10 µM, 7x7, partner max 0.3 µM)"
  combination Emax: 0.755
- Molecule: "COc1nnc2ccc(N3CCC(c4ccc(OCCN5CCN(C)C(=O)[C@H]5C)cc4)CC3)nn12 [AZD5153] + CC1(C)CCC(CN2CCN(c3ccc(C(=O)NS(=O)(=O)c4ccc(NCC5CCOCC5)c([N+](=O)[O-])c4)c(Oc4cnc5[nH]ccc5c4)c3)CC2)=C(c2ccc(Cl)cc2)C1 [Venetoclax] (first compound max 1 µM, 7x7, partner max 1 µM)"
  combination Emax: 0.402

----------
System: NCI-H2052 (Mesothelioma)
Experiment: combination Emax (second highest fraction inhibited in the dose matrix, 72 h); higher = more inhibition; extreme values may be limits of the assay

- Molecule: "NC1(C(=O)N[C@@H](CCO)c2ccc(Cl)cc2)CCN(c2ncnc3[nH]ccc23)CC1 [Capivasertib] + C[C@@H]1COCCN1C2=NC(=NC(=C2)C3(CC3)[S@](=N)(=O)C)C4=C5C=CNC5=NC=C4 [AZD6738] (first compound max 10 µM, 7x7, partner max 10 µM)"
  combination Emax: 0.57
- Molecule: "CC1(C)CCC(CN2CCN(c3ccc(C(=O)NS(=O)(=O)c4ccc(NCC5CCOCC5)c([N+](=O)[O-])c4)c(Oc4cnc5[nH]ccc5c4)c3)CC2)=C(c2ccc(Cl)cc2)C1 [Venetoclax] + C=CCn1c(=O)c2cnc(Nc3ccc(N4CCN(C)CC4)cc3)nc2n1-c1cccc(C(C)(C)O)n1 [AZD1775] (first compound max 1 µM, partner max 1 µM)"
  combination Emax: 0.249

----------
Consider the following compounds and their measured combination Emax readings.
Tested on: NCI-H209 (Small Cell Lung Carcinoma)
Test: combination Emax (second highest fraction inhibited in the dose matrix, 72 h); higher = more inhibition; extreme values may be limits of the assay

- Compound: "Cc1cc2ncnn2cc1Nc1ncc2c(n1)n(C1CCOCC1)c(=O)n2C [AZD7648] + C[C@@H]1COCCN1C2=NC(=NC(=C2)C3(CC3)[S@](=N)(=O)C)C4=C5C=CNC5=NC=C4 [AZD6738] (first compound max 10 µM, 7x7, partner max 10 µM)"
  Subject of test: "NCI-H209 (Small Cell Lung Carcinoma)"
  combination Emax: 0.691
- Compound: "CN(C)CCCOc1ccc(-c2ccc3ncc4c(c3c2)n(C2CCOCC2)c(=O)n4C)cn1 [AZD0156] + C=CCn1c(=O)c2cnc(Nc3ccc(N4CCN(C)CC4)cc3)nc2n1-c1cccc(C(C)(C)O)n1 [AZD1775] (first compound max 1 µM, partner max 1 µM)"
  Subject of test: "NCI-H209 (Small Cell Lung Carcinoma)"
  combination Emax: 0.84
- Compound: "C[C@@H]1COCCN1c1cc(C2([S@](C)(=N)=O)CC2)nc(-c2ccnc3[nH]ccc23)n1 [AZD6738] + O=C(c1cc(Cc2n[nH]c(=O)c3ccccc23)ccc1F)N1CCN(C(=O)C2CC2)CC1 [Olaparib] (first compound max 10 µM, 7x7, partner max 10 µM)"
  Subject of test: "NCI-H209 (Small Cell Lung Carcinoma)"
  combination Emax: 0.94
- Compound: "Cc1c2c(nn1C)CSCc1cc(n(C)n1)CSc1cc(c3ccccc3c1)OCCCc1c(C(=O)O)n(C)c3c-2c(Cl)ccc13 [AZD5991] + Cn1cnc2c(F)c(Nc3ccc(Br)cc3Cl)c(C(=O)NOCCO)cc21 [Selumetinib] (first compound max 1 µM, 7x7, partner max 3 µM)"
  Subject of test: "NCI-H209 (Small Cell Lung Carcinoma)"
  combination Emax: 0.402

----------
System: SNU-16 (Gastric Carcinoma)
Test: combination Emax (second highest fraction inhibited in the dose matrix, 72 h); higher = more inhibition; extreme values may be limits of the assay
Let's look at some compounds and their measured combination Emax.

- Compound: "CS(=O)(=O)CCNCc1ccc(-c2ccc3ncnc(Nc4ccc(OCc5cccc(F)c5)c(Cl)c4)c3c2)o1 [Lapatinib] + Cn1cnc2c(F)c(Nc3ccc(Br)cc3Cl)c(C(=O)NOCCO)cc21 [Selumetinib] (first compound max 10 µM, 7x7, partner max 10 µM)"
  combination Emax: 0.557
- Compound: "COc1nnc2ccc(N3CCC(c4ccc(OCCN5CCN(C)C(=O)[C@H]5C)cc4)CC3)nn12 [AZD5153] + CCN(CCO)CCCOc1ccc2c(Nc3cc(CC(=O)Nc4cccc(F)c4)[nH]n3)ncnc2c1 [AZD2811] (first compound max 1 µM, 7x7, partner max 1 µM)"
  combination Emax: 0.868
- Compound: "COc1nnc2ccc(N3CCC(c4ccc(OCCN5CCN(C)C(=O)[C@H]5C)cc4)CC3)nn12 [AZD5153] + Cn1cnc2c(F)c(Nc3ccc(Br)cc3Cl)c(C(=O)NOCCO)cc21 [Selumetinib] (first compound max 1 µM, 7x7, partner max 10 µM)"
  combination Emax: 0.902
- Compound: "C[C@@H]1COCCN1c1cc(C2([S@](C)(=N)=O)CC2)nc(-c2ccnc3[nH]ccc23)n1 [AZD6738] + O=C(c1cc(Cc2n[nH]c(=O)c3ccccc23)ccc1F)N1CCN(C(=O)C2CC2)CC1 [Olaparib] (first compound max 10 µM, 7x7, partner max 10 µM)"
  combination Emax: 0.956

----------
Test system: OV-56 (Ovarian Carcinoma);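 also: after 72 h of two-drug dosing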
Assay: Bliss excess, mean over the matrix (fraction); higher = more synergy
Measured quantity: Bliss excess

- Compound: "Cc1nc(Nc2ncc(C(=O)Nc3c(C)cccc3Cl)s2)cc(N2CCN(CCO)CC2)n1 [Dasatinib] + CC(=O)Nc1cccc(-n2c(=O)n(C3CC3)c(=O)c3c(Nc4ccc(I)cc4F)n(C)c(=O)c(C)c32)c1 [Trametinib] (first compound max 2 µM, 7x7, partner max 1 µM)"
  Measured: 0.0114
- Compound: "CN(CCO)CC[C@H](CSc1ccccc1)Nc1ccc(S(=O)(=O)NC(=O)c2ccc(N3CCC([C@@H](O)c4ccccc4-c4ccc(Cl)cc4)CC3)cc2)cc1S(=O)(=O)C(F)(F)F [AZD4320] + C=CCn1c(=O)c2cnc(Nc3ccc(N4CCN(C)CC4)cc3)nc2n1-c1cccc(C(C)(C)O)n1 [AZD1775] (first compound max 1 µM, partner max 1 µM)"
  Measured: -0.0113
- Compound: "CC1(C)CCC(CN2CCN(c3ccc(C(=O)NS(=O)(=O)c4ccc(NCC5CCOCC5)c([N+](=O)[O-])c4)c(Oc4cnc5[nH]ccc5c4)c3)CC2)=C(c2ccc(Cl)cc2)C1 [Venetoclax] + Cc1cc2ncnn2cc1Nc1ncc2c(n1)n(C1CCOCC1)c(=O)n2C [AZD7648] (first compound max 1 µM, 7x7, partner max 10 µM)"
  Measured: 0.0016

----------
Reported combination Emax values for the following compounds.
Test system: NCI-H524 (Small Cell Lung Carcinoma)
Assay: combination Emax (second highest fraction inhibited in the dose matrix, 72 h); higher = more inhibition; extreme values may be limits of the assay

- Compound: "CC1(C)CCC(CN2CCN(c3ccc(C(=O)NS(=O)(=O)c4ccc(NCC5CCOCC5)c([N+](=O)[O-])c4)c(Oc4cnc5[nH]ccc5c4)c3)CC2)=C(c2ccc(Cl)cc2)C1 [Venetoclax] + C[C@@H]1COCCN1C2=NC(=NC(=C2)C3(CC3)[S@](=N)(=O)C)C4=C5C=CNC5=NC=C4 [AZD6738] (first compound max 1 µM, 7x7, partner max 10 µM)"
  combination Emax: 0.748
- Compound: "CN(CCO)CC[C@H](CSc1ccccc1)Nc1ccc(S(=O)(=O)NC(=O)c2ccc(N3CCC([C@@H](O)c4ccccc4-c4ccc(Cl)cc4)CC3)cc2)cc1S(=O)(=O)C(F)(F)F [AZD4320] + C=CCn1c(=O)c2cnc(Nc3ccc(N4CCN(C)CC4)cc3)nc2n1-c1cccc(C(C)(C)O)n1 [AZD1775] (first compound max 1 µM, partner max 1 µM)"
  combination Emax: 0.952
- Compound: "Cc1nc(-c2cn3c(n2)-c2ccc(-c4cnn(C(C)(C)C(N)=O)c4)cc2OCC3)n(C(C)C)n1 [Taselisib] + O=C(Nc1ccc2[nH]nc(-c3ccncc3)c2c1)[C@@H]1CCN(CC(=O)N2CCN(c3ccc(-c4ncccn4)cc3)CC2)C1 [SCH772984] (first compound max 10 µM, 7x7, partner max 5 µM)"
  combination Emax: 0.411
- Compound: "CC1(C)CCC(CN2CCN(c3ccc(C(=O)NS(=O)(=O)c4ccc(NCC5CCOCC5)c([N+](=O)[O-])c4)c(Oc4cnc5[nH]ccc5c4)c3)CC2)=C(c2ccc(Cl)cc2)C1 [Venetoclax] + C[C@@H](Nc1cc(F)cc(F)c1)c1cc(C(=O)N(C)C)cc2c(=O)cc(N3CCOCC3)oc12 [AZD8186] (first compound max 1 µM, 7x7, partner max 3 µM)"
  combination Emax: 0.535
- Compound: "CC1(C)CCC(CN2CCN(c3ccc(C(=O)NS(=O)(=O)c4ccc(NCC5CCOCC5)c([N+](=O)[O-])c4)c(Oc4cnc5[nH]ccc5c4)c3)CC2)=C(c2ccc(Cl)cc2)C1 [Venetoclax] + Cc1cc2ncnn2cc1Nc1ncc2c(n1)n(C1CCOCC1)c(=O)n2C [AZD7648] (first compound max 1 µM, 7x7, partner max 10 µM)"
  combination Emax: 0.308
- Compound: "CN(CCO)CC[C@H](CSc1ccccc1)Nc1ccc(S(=O)(=O)NC(=O)c2ccc(N3CCC([C@@H](O)c4ccccc4-c4ccc(Cl)cc4)CC3)cc2)cc1S(=O)(=O)C(F)(F)F [AZD4320] + CS(=O)(=O)CCNCc1ccc(-c2ccc3ncnc(Nc4ccc(OCc5cccc(F)c5)c(Cl)c4)c3c2)o1 [Lapatinib] (first compound max 1 µM, 7x7, partner max 10 µM)"
  combination Emax: 0.968
- Compound: "O=C(c1cc(Cc2n[nH]c(=O)c3ccccc23)ccc1F)N1CCN(C(=O)C2CC2)CC1 [Olaparib] + CN(CC[C@H](CSC1=CC=CC=C1)NC2=C(C=C(C=C2)S(=O)(=O)NC(=O)C3=CC=C(C=C3)N4CCC(CC4)[C@H](C5=CC=CC=C5C6=CC=C(C=C6)Cl)O)S(=O)(=O)C(F)(F)F)CCO [AZD4320] (first compound max 10 µM, 7x7, partner max 1 µM)"
  combination Emax: 0.755
- Compound: "Cc1c2c(nn1C)CSCc1cc(n(C)n1)CSc1cc(c3ccccc3c1)OCCCc1c(C(=O)O)n(C)c3c-2c(Cl)ccc13 [AZD5991] + C[C@@H]1COCCN1C2=NC(=NC(=C2)C3(CC3)[S@](=N)(=O)C)C4=C5C=CNC5=NC=C4 [AZD6738] (first compound max 1 µM, 7x7, partner max 10 µM)"
  combination Emax: 0.854
- Compound: "CC1(C)CCC(CN2CCN(c3ccc(C(=O)NS(=O)(=O)c4ccc(NCC5CCOCC5)c([N+](=O)[O-])c4)c(Oc4cnc5[nH]ccc5c4)c3)CC2)=C(c2ccc(Cl)cc2)C1 [Venetoclax] + Cn1cnc2c(F)c(Nc3ccc(Br)cc3Cl)c(C(=O)NOCCO)cc21 [Selumetinib] (first compound max 1 µM, 7x7, partner max 3 µM)"
  combination Emax: 0.113
- Compound: "O=C(c1cc(Cc2n[nH]c(=O)c3ccccc23)ccc1F)N1CCN(C(=O)C2CC2)CC1 [Olaparib] + COc1nnc2ccc(N3CCC(c4ccc(OCCN5CCN(C)C(=O)[C@H]5C)cc4)CC3)nn12 [AZD5153] (first compound max 10 µM, 7x7, partner max 1 µM)"
  combination Emax: 0.542
- Compound: "COc1cccc(OCCCN)c1-c1cc(Nc2cnc(C#N)cn2)n[nH]1 [Prexasertib] + Cc1cc2ncnn2cc1Nc1ncc2c(n1)n(C1CCOCC1)c(=O)n2C [AZD7648] (first compound max 1 µM, 7x7, partner max 10 µM)"
  combination Emax: 0.988
- Compound: "Cn1cnc2c(F)c(Nc3ccc(Br)cc3Cl)c(C(=O)NOCCO)cc21 [Selumetinib] + CCN(CCO)CCCOc1ccc2c(Nc3cc(CC(=O)Nc4cccc(F)c4)[nH]n3)ncnc2c1 [AZD2811] (first compound max 10 µM, 7x7, partner max 1 µM)"
  combination Emax: 0.955
